System Name: hERG (Homo sapiens, UniProt Q12809)
Sequence (Q12809 whole entry): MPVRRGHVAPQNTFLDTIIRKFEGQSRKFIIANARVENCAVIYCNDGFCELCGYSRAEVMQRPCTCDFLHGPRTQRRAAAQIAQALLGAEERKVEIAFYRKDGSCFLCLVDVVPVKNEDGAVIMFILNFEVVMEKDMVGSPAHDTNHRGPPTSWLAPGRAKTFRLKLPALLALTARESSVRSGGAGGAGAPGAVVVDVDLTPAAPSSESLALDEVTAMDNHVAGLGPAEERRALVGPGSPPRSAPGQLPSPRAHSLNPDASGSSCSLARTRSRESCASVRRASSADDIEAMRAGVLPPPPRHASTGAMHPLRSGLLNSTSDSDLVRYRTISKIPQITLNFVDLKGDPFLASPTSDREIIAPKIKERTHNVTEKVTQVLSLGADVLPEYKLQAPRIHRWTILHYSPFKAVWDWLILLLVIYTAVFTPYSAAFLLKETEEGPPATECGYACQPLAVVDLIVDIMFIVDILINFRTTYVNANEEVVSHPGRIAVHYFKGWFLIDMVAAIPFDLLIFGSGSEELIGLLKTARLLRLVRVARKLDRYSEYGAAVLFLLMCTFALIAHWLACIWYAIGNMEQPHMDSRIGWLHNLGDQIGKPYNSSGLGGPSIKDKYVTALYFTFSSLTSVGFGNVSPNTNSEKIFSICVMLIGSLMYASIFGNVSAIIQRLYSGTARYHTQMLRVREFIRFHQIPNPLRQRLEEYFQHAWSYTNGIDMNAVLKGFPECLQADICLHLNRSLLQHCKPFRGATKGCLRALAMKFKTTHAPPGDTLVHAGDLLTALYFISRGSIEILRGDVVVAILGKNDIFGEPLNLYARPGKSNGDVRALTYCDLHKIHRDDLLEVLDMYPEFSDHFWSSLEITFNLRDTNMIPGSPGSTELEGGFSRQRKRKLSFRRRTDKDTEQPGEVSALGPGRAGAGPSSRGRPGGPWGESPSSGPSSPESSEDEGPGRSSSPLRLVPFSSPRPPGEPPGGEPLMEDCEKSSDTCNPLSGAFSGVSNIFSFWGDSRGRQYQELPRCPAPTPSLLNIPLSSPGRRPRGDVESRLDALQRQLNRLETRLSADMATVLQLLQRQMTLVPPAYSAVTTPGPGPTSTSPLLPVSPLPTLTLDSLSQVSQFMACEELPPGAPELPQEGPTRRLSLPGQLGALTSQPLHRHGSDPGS
Assay: Patch-clamp electrophysiology of hERG blockade in HEK 293 cells
Type: cell-based
Measurement Conditions: read-out: IC50 at hERG; patch-clamp, whole cell tail currents
For each record, write down the corresponding IC50.
One number for each entry, in µM.

# Compound, IC50 (µM)
rows = [
    ("[O-][S+](CCN1CCN(CC(O)Cc2ccccc2)CC1)C(c1ccc(F)cc1)c1ccc(F)cc1 (centres unmarked) [JJC8-088]", 0.13),
]

Proceeding to the next compound to report its IC50.
Q: Fill in: IC50 of Fc1ccc(C(SCCNCCCc2ccccc2)c2ccc(F)cc2)cc1 [JJC8-016] is ___
A: 0.06
